MIC50 listing for selected compounds.
- System: Mycobacterium tuberculosis
- test-details: Anti-mycobacterial activity against Rifampicin resistant Mycobacterium tuberculosis clinical isolate harbouring rpoB S531L mutant assessed as bacterial growth inhibition incubated for 7 days by microplate alamar blue assay
- Assay type: functional
- applied-conditions: time 7 day
Use µM as the unit, but write only the number.

Some solved entries appear below for comparison.
[
  {
    "compound": "NNC(=O)c1ccncc1 [ISONIAZID]",
    "experimental-system": "Mycobacterium tuberculosis",
    "MIC50 / µM": 23.03
  },
  {
    "compound": "CC(=O)NC[C@H]1CN(c2ccc(N3CCOCC3)c(F)c2)C(=O)O1 [LINEZOLID]",
    "experimental-system": "Mycobacterium tuberculosis",
    "MIC50 / µM": 0.24
  },
  {
    "compound": "CO[C@H]1/C=C/O[C@@]2(C)Oc3c(C)c(O)c4c(O)c(c(/C=N/N5CCN(C)CC5)c(O)c4c3C2=O)NC(=O)/C(C)=C\\C=C\\[C@H](C)[C@H](O)[C@@H](C)[C@@H](O)[C@@H](C)[C@H](OC(C)=O)[C@@H]1C [RIFAMPIN]",
    "experimental-system": "Mycobacterium tuberculosis",
    "MIC50 / µM": 28.15
  },
  {
    "compound": "Clc1ccc(COC(Cn2ccnc2)c2ccc(Cl)cc2Cl)c(Cl)c1 (stereo not given) [MICONAZOLE]",
    "experimental-system": "Mycobacterium tuberculosis",
    "MIC50 / µM": 2.74
  }
]

Then there is this compound:
input: # input compound: Clc1ccccc1C(c1ccccc1)(c1ccccc1)n1ccnc1 [CLOTRIMAZOLE] ; wanted: its MIC50
output: 1.53
